# protocol.notes: VP16 transactivation reporter inhibitors, counter-screen for LRH-1 inverse agonist project, cell-based, luminescence, high throughput (AID 651615)
# setup.conditions: Gal4-VP16 luciferase reporter cells, at 3.6 µM, active compounds read high
inhibition reference
A number alone suffices; assume %.

Some entries whose results are on file:
## Input Given CCN(Cc1ccccc1)c1ccc(/C=N/NS(=O)(=O)c2ccc(C)c([N+](=O)[O-])c2)cc1 , state its recorded inhibition.
## Output 9.15

## Input Let us now turn to CC1(C(=O)NCc2ccco2)Cc2c(-c3ccccc3)ccnc2O1 (stereo unspecified)
## Output 26.6

## Input Let us now turn to O=C(NC1CCCCC1)C(c1cccnc1)N(C(=O)CCl)c1ccccc1Cl (stereo unspecified)
## Output 64.8

## Input Let us now turn to CC(=O)Nc1cc(-c2cccnc2)cn2c(-c3ccc(F)cc3)cnc12
## Output 0.11

## Input Let us now turn to c1ccc(-c2nn(-c3ccccc3)[n+](-c3ccccc3)n2)cc1
## Output 48.5

***
## Input Given CC(=O)N(/N=C1\Sc2ccccc2C1=O)c1ccc(C)cc1C , state its recorded inhibition.
## Output -16.6

* * *

# Tested on: transactivating tegument protein VP16 (Human herpesvirus 1), Gal4-VP16 luciferase reporter
# protocol.notes: VP16 transactivation inhibitors, counter-screen for SRC3 inhibitor project, cell-based, luminescence, high throughput (AID 588794)
# setup.conditions: mammalian cells, VP16-driven luciferase reporter luminescence; at 3.6 µM; active compounds read high
Labels assigned by inhibition range: bottom end: < 30%; midrange: ≥ 30% and < 60%; top end: ≥ 60%

## Input Which class does O=C(N/N=C/c1cc(Br)c(Br)s1)c1ccncc1 fall in?
## Output bottom end

## Input Let us now turn to CNc1cccnc1C=NNC(N)=S
## Output midrange

## Input Let us now turn to Cc1cccc(Nc2nc(N)c([N+](=O)[O-])c(N3CC(C)CC(C)C3)n2)c1 (stereo unspecified)
## Output bottom end

## Input Let us now turn to CCCN(CCC)C1=CC(=[N+]2CCCC2)CC(C)(C)C1
## Output midrange

## Input Let us now turn to Cc1ccc(C(=O)Nc2nc(-c3ccccn3)cs2)cc1S(=O)(=O)N1CCOCC1
## Output bottom end

# evaluate next
## Input Which class does COc1cccc(/C=N/Nc2ccc([N+](=O)[O-])cn2)c1O fall in?
## Output bottom end

* * *

inhibition reference
# protocol.notes: VP16 transactivation reporter inhibitors, counter-screen for LRH-1 inverse agonist project, cell-based, luminescence, high throughput (AID 651615)
# setup.conditions: Gal4-VP16 luciferase reporter cells, at 3.6 µM, active compounds read high
A number alone suffices; assume %.

Some entries whose results are on file:
## Input Given CC(=O)Nc1cc(-c2ccc(F)cc2)cn2c(-c3ccc(S(C)(=O)=O)cc3)cnc12 , state its recorded inhibition.
## Output -16.1

## Input Let us now turn to Cc1ccc(/C=C/S(=O)(=O)NCC(=O)OCC(=O)Nc2c(F)cccc2F)cc1
## Output -18.4

## Input Let us now turn to Cc1ccc2oc(/N=C(\N)NC(=O)C(C)(C)C)nc2c1
## Output 61.7

## Input Let us now turn to Fc1ccc(Br)cc1SCCc1ccncc1
## Output -2.36

## Input Let us now turn to COc1ccc(/C=C2\SC(=O)N(CCCC(=O)Nc3ccc(C(=O)O)cc3)C2=O)cc1
## Output 58.1

***
## Input Given CN1/C(=C\C(=O)C[n+]2ccc3ccccc3c2)C(C)(C)c2ccccc21 , state its recorded inhibition.
## Output 66.7

## Input Let us now turn to O=C(Nc1c(Cl)ccc2nsnc12)c1ccc([N+](=O)[O-])o1
## Output -11.9

## Input Let us now turn to Clc1ccc2c(c1)-c1ccccc1C1=NCCN12
## Output 64.1

## Input Let us now turn to COc1ccc(CC(=O)Nc2ccncc2Cl)cc1
## Output 43

## Input Let us now turn to CCCC(=O)NC(c1ccc(C)cc1)c1ccc2cccnc2c1O (stereo not given)
## Output 83.1

## Input Let us now turn to Cc1cccc(-n2ncc3c2CCCC3NC(=O)c2ccncc2)c1C (stereo not given)
## Output 44

## Input Let us now turn to Nc1cccc(OCCCCCOc2cccc(N)c2)c1
## Output -5

## Input Let us now turn to COc1ccc(NC(=O)c2cc(-c3cc(F)ccc3OC)n[nH]2)cc1OC
## Output 52

## Input Let us now turn to CCOc1ccc(CCNC(=O)COC(=O)c2cccnc2OCC)cc1OCC
## Output 0.35

## Input Let us now turn to COCCSc1ccccc1C(=O)NCc1ccc2c(c1)OCO2
## Output 2.27

* * *

# System: transactivating tegument protein VP16 (Human herpesvirus 1)
# protocol.notes: VP16 transactivation reporter inhibitors, counter-screen for SRC2 inhibitor project, cell-based, luminescence, single concentration (AID 652007)
# setup.conditions: cell-based VP16 transactivation luciferase reporter, at 8.9 µM
Calls of active or inactive are those of the source. Rule as the data show it: active = inhibition above about 36%; inactive = the rest.
Pick one: true (active), false (inactive)

A selection of reference data follows.
## Input Could you check what this test reported for Cn1nnnc1Sc1ncnc2scc(-c3ccc(Br)cc3)c12 ?
## Output false

## Input Let us now turn to C=CC[n+]1c(-c2ccc(C)cc2)csc1Nc1ccc(NC(C)=O)cc1
## Output true

## Input Let us now turn to COc1ccc(-c2nc(-c3ccccn3)no2)cc1
## Output true

## Input Let us now turn to CC(=O)Nc1cc(=O)c2cccnc2[nH]1
## Output false

## Input Let us now turn to CN1CCN(S(=O)(=O)c2ccc(N(C)Cc3cccc(F)c3)nc2)CC1
## Output false

## Input Let us now turn to C=CCn1c(C)cc(C2=NNC(=NCC)SC2)c1C
## Output true

## Input Let us now turn to CC1CC(C)(C)Nc2ccc(OC(=O)c3ccco3)cc21 (stereo unspecified)
## Output false

## Input Let us now turn to COC(=O)[C@]12C[C@H](CC(=O)N3CCCC3)C(=O)N(CCC3=CCCCC3)C1=C[C@H](C(C)C)O[C@@H]2C1CC1
## Output false

***
## Input Could you check what this test reported for Cc1ccc2sc(N(CCCN(C)C)C(=O)CN3C(=O)c4ccccc4C3=O)nc2c1C ?
## Output false

## Input Let us now turn to O=C(/C=C\Nc1ccc2c(c1)OCO2)c1ccccn1
## Output false

## Input Let us now turn to COc1ccc(C(=O)/C=C/Nc2ccccn2)cc1
## Output false

* * *

# Test system: transactivating tegument protein VP16 (Human herpesvirus 1), Gal4-VP16 luciferase reporter
# protocol.notes: VP16 transactivation inhibitors, counter-screen for SRC3 inhibitor project, cell-based, luminescence, high throughput (AID 588794)
# setup.conditions: mammalian cells, VP16-driven luciferase reporter luminescence; at 3.6 µM; active compounds read high
The source made the active and inactive calls. No stated cut-off is given here; in the data, active means inhibition above about 30%; inactive means the rest.
inhibition reference

## Input Given Cc1cccc(C)c1-n1c(C)cc(/C=N\NC(=O)CC(=O)NC2CCCCC2)c1C , state its recorded inhibition.
## Output -15.1% (inactive)

## Input Let us now turn to c1cnc2ccc(-n3ccnc3)cc2c1
## Output 23.8% (inactive)

***
## Input Given Nc1ccc(Oc2cccc(Oc3ccc(N)cc3)c2)cc1 , state its recorded inhibition.
## Output 29.6% (active)

## Input Let us now turn to COc1ccc(-c2cc(C(=O)N(C)Cc3ccc(OC)c(OC)c3OC)c3ccccc3n2)cc1OC
## Output 6.51% (inactive)

## Input Let us now turn to CC1(Cc2cccc(F)c2)C(=O)Nc2ccc(-c3cccnc3)cc21 (stereo unspecified)
## Output 49.2% (active)

## Input Let us now turn to Cc1c(CC(=O)NCCCC(=O)O)c(=O)oc2cc3c(cc12)CCC(C)(C)O3
## Output 17.2% (inactive)

* * *

# tgt: Nuclear receptor subfamily 5 group A member 2 (Homo sapiens) (UniProt O00482)
# Sequence (O00482 whole entry, looked up): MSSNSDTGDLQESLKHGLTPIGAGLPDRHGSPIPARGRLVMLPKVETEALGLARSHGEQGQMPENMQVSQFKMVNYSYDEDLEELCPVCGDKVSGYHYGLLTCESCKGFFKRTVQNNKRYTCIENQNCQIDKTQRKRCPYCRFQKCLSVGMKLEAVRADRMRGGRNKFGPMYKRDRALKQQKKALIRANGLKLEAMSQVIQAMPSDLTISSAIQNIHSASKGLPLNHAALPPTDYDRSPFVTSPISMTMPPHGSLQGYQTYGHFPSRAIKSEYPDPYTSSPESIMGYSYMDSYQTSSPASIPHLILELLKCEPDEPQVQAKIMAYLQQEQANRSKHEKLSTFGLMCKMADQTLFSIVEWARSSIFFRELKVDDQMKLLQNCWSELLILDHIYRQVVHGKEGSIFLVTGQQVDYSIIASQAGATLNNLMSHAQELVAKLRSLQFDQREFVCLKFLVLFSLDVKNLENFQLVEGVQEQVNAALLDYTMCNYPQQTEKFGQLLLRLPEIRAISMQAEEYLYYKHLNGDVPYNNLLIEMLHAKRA
# protocol.notes: LRH-1 (NR5A2) inverse agonists, retest, confirmation, cell-based, luminescence (AID 651613);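 also: HEK293T cells co-transfected with LRH-1 and StAR promoter luciferase reporter; 0% = vehicle wells and 100% = parental cells lacking receptor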
# setup.conditions: cell-based LRH-1 luciferase reporter, inverse agonism; at 3.6 µM; active compounds read high
Label True when inhibition >= 60%; otherwise False.

A selection of reference data follows.
## Input Check this compound for inhibition at or above 60%: C[C@@H](C(=O)Nc1ccc2c(c1)OCCO2)n1c(=O)[nH]c2ccccc2c1=O
## Output False

## Input Let us now turn to O=C(NC1CCCCCCC1)c1cc(COc2ccc3ncccc3c2)on1
## Output False

## Input Let us now turn to O=C(COc1ccc(F)c(Cl)c1)Nc1ccc(N2CCOCC2)cc1
## Output False

***
## Input Check this compound for inhibition at or above 60%: CCN(Cc1ccccc1)c1ccc(/C=N/N2CCOCC2)cc1
## Output False

## Input Let us now turn to CCn1nnnc1SCC(=O)N(C)C1CCS(=O)(=O)C1 (stereo not drawn)
## Output False

## Input Let us now turn to COc1ccc(/C=C2\SC(=O)N(CCCC(=O)Nc3ccc(C(=O)O)cc3)C2=O)cc1
## Output True
